system: Amine oxidase [flavin-containing] A (Homo sapiens)
experimentNotes: Inhibition of human MAOA
quantity: IC50 (µM)
State the answer as a number, implicitly in µM.

Specify measured IC50 for O=C(SCCc1ccco1)c1cc2ccccc2oc1=O . 39.7

====

system: Amine oxidase [flavin-containing] A (Homo sapiens, UniProt P21397)
Sequence (P21397 whole entry): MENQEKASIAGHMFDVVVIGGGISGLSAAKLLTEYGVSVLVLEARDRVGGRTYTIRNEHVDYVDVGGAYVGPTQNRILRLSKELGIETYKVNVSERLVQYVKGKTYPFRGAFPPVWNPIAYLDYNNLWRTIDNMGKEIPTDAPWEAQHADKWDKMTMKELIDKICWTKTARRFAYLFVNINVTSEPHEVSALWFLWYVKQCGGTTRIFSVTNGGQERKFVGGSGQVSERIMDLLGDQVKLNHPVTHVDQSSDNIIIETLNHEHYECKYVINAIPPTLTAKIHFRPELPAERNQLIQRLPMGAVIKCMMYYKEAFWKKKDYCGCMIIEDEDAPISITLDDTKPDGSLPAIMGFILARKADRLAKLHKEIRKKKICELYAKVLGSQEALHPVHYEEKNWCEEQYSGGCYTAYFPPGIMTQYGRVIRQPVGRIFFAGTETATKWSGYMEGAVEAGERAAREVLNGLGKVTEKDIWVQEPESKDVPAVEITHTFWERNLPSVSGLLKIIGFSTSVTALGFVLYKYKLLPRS
experimentNotes: Inhibition of human MAOA
quantity: pKi
Scale for pKi: -log10 of concentration given in mol/L; no unit attached.

For the compound COc1cc(C2=NN(C(=O)Oc3ccccc3)C(c3ccc(O)c(OC)c3)C2)ccc1O (stereo unspecified) , report pKi. 6.85

====

system: UniProt P21397
experimentNotes: Inhibition of human MAOA at 1 uM relative to control
quantity: inhibition at 1 µM (%)
Quick note: give the figure in %, leave out the unit.

For the compound Cn1c(=O)c2[nH]c(-c3cccc(NC(=O)/C=C/c4cccc(F)c4)c3)nc2n(C)c1=O , give its reported inhibition at 1 µM. 0
